These entries and their values trace back to ChEMBL document CHEMBL1201862.

# Test system: NCI-H460
# measurement.protocol: NCI tumour cell line growth inhibition, 48 h
Active and inactive are the calls of the source. Cut-off read from the data, not from the text of the source: active = GI50 up to about 1.1 µM and inactive = higher.
measurement.kind: GI50

>  <compound>
Oc1ccc(Cl)cc1Cc1cc(Cl)cc(Cc2cc(Cl)ccc2O)c1O

>  <reported.result>
1.77 µM (inactive)

$$$$

Consider the following items and state reported GI50 for each.
1. [N-]=[N+]=Nc1c(Br)c(=O)[nH]c(=O)n1COCCO
2. O=C(O)C(CS)NCc1c2ccccc2nc2ccccc12 (stereo unspecified)
3. COc1ccccc1C1ON=C(c2ccc([N+](=O)[O-])cc2)N1C12CC3CC(CC(C3)C1)C2 (stereo unspecified)

### Response
1. > 100 µM (inactive)
2. 42.5 µM (inactive)
3. 47.9 µM (inactive)

Your task in this section: give GI50 for each listed record.
1. COC(=O)C1=C(C)C(=O)[C@]23C(CCCC[C@H]12)C(=O)[C@H](C(=O)OC)C3C (stereo partly specified)
2. O=C1c2ccccc2C(=O)c2[nH]c(Cc3ccccc3F)nc21

### Response
1. > 100 µM (inactive)
2. 33.9 µM (inactive)
